TGI for assorted molecules
System: EKVX NSCLC
Experiment: NCI tumour cell line growth inhibition, 48 h

molecule	TGI
CCCCCCCCCCCCCCC(C)CCC(=O)O (stereo not given)	> 100 µM
COc1cc(CCc2ccc(OC(C)=O)cc2)cc(OC)c1OC	> 100 µM
Oc1ccc(SCc2cc(O)ccc2O)cc1	41.7 µM
O=CC1=CCC2c3[nH]c4ccccc4c3CCN2C1 (stereo not given)	> 396 µM
CSc1nc(C)c2c(n1)N(c1ccc(Cl)cc1)CC2	> 100 µM

Q: Record CCC1CN2CCc3c([nH]c4ccccc34)[C@@](C(=O)OC)(c3cc4c(cc3OC)N(C)C3C(O)(C(=O)OC)C(C(=O)OC)C5(CC)C=CCN6CCC43C65)C[C@@H](C2)[C@@H]1C(C)(C)C (stereo not given in full) : what is its TGI with EKVX NSCLC?
Ans: > 10 µM

Q: Follow-up entry: `Cc1cc2occ(S(=O)(=O)NC(=O)Nc3ccc(Cl)cc3)c(=O)c2c(=O)o1`
Ans: > 100 µM

Q: Follow-up entry: `C=CCNC1=C2C[C@@H](C)C[C@@H](OC)[C@H](OC(=O)CCN(C)C)[C@H](C)/C=C(\C)[C@@H](OC(N)=O)[C@H](OC)/C=C\C=C(/C)C(=O)NC(=CC1=O)C2=O`
Ans: 22.9 µM

Q: Follow-up entry: COC(=O)[C@]1(C)CCC[C@]2(C)[C@@H]1CCC13C[C@@H](C=CO1)[C@@H](C)CC32O (stereo not given in full)
Ans: > 100 µM

Q: Follow-up entry: CC1=CCN(c2ccccn2)OC1c1ccccc1 (stereo not given)
Ans: > 100 µM

Q: Follow-up entry: `C[C@]12CCC3=NCCN3C1=CC[C@@H]1[C@@H]2CC[C@@]2(C)[C@H]1CC[C@]2(C)O`
Ans: > 100 µM

Q: Follow-up entry: CCCCCCCCCCCCC1N=C(N)NC2(CCCO2)C1C(=O)OC (stereo not given)
Ans: 36.6 µM
